# tgt: Fibroblast growth factor receptor 1 (Homo sapiens)
# procedure.text: Inhibition of FGFR1 (unknown origin) at 50 nM by Z'LYTE screening method relative to control
endpoint.name: inhibition (%)

• O=C1c2ccccc2CN1c1nc(NC2CCCCC2)c2nc[nH]c2n1 = 0
• O=c1c2ccccc2[se]n1-c1nc(NC2CCCCC2)c2nc[nH]c2n1 = 0
• CCN(CC)CCCC(C)Nc1nc(-n2[se]c3ccccc3c2=O)nc2[nH]cnc12 (stereo not drawn) = 0

---

# tgt: Mitogen-activated protein kinase 11 (Homo sapiens) (UniProt Q15759)
# Sequence (Q15759 whole entry): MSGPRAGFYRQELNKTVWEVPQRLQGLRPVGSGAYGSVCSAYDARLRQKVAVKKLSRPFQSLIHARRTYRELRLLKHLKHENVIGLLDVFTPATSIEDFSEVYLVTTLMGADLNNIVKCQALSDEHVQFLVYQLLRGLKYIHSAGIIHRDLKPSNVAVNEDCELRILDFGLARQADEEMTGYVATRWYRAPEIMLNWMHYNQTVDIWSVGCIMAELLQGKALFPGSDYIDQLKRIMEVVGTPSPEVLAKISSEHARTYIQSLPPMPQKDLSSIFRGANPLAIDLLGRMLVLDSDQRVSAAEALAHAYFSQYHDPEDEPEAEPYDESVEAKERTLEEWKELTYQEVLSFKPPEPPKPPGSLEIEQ
# procedure.text: Inhibition of MAPK11 (unknown origin) at 50 nM by Z'LYTE screening method relative to control
endpoint.name: inhibition (%)

• O=c1c2ccccc2[se]n1-c1nc(N[C@H]2CCOC2)c2nc[nH]c2n1 = 3
• O=c1c2ccccc2[se]n1-c1nc(N[C@H]2CC[Se]C2)c2nc[nH]c2n1 = 9
• CCN(CC)CCCC(C)Nc1nc(-n2[se]c3ccccc3c2=O)nc2[nH]cnc12 (configuration not stated) = 3

(1) O=c1c2ccccc2[se]n1-c1nc(Nc2ccccc2)c2nc[nH]c2n1
(2) CCN(CC)CCCC(C)Nc1nc(N2Cc3ccccc3C2=O)nc2[nH]cnc12 (configuration not stated)
# input Among 1 and 2 , which shows a numerically higher inhibition result? Give the label of your selection.
# output 2

---

# tgt: Protein kinase C theta type (Homo sapiens)
# Sequence (Q04759 whole entry, looked up): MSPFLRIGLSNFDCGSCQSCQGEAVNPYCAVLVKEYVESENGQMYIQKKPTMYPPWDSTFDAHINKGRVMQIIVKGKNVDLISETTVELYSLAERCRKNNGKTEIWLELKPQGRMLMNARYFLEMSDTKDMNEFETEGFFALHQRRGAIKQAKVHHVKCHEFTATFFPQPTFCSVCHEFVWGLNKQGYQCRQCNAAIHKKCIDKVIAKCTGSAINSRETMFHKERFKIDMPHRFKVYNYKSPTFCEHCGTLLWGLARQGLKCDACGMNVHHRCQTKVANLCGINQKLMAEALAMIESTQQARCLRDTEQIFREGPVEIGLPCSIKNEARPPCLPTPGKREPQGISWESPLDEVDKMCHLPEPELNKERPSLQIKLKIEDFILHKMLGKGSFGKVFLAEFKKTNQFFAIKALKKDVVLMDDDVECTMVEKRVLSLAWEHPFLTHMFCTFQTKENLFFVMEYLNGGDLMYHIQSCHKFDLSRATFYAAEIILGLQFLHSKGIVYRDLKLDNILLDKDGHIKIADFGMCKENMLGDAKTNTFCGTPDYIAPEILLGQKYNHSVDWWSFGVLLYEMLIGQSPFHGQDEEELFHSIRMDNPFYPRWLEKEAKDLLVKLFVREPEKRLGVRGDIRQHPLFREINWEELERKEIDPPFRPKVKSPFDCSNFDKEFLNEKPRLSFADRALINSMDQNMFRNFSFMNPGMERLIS
# procedure.text: Inhibition of PKCtheta (unknown origin) at 50 nM by Z'LYTE screening method relative to control
endpoint.name: inhibition (%)

- CCCNc1nc(-n2[se]c3ccccc3c2=O)nc2[nH]cnc12: 25
- O=C1c2ccccc2CN1c1nc(N[C@H]2CC[Se]C2)c2nc[nH]c2n1: 14

(1) O=c1c2ccccc2sn1-c1nc(NC2CCCC2)c2nc[nH]c2n1
(2) O=c1c2ccccc2[se]n1-c1nc(Nc2ccccc2)c2nc[nH]c2n1
(3) O=c1c2ccccc2sn1-c1nc(NC2CCSC2)c2nc[nH]c2n1 (stereo not given)
# input Arrange the 3 molecules by rising inhibition, starting with the smallest. Give the labels in the order specified.
# output 2, 1, 3
(2: 12%, 1: 60%, 3: 97%)

---

# tgt: Focal adhesion kinase 1 (Homo sapiens) (UniProt Q05397)
# Sequence (Q05397 2-1052 limits assumed): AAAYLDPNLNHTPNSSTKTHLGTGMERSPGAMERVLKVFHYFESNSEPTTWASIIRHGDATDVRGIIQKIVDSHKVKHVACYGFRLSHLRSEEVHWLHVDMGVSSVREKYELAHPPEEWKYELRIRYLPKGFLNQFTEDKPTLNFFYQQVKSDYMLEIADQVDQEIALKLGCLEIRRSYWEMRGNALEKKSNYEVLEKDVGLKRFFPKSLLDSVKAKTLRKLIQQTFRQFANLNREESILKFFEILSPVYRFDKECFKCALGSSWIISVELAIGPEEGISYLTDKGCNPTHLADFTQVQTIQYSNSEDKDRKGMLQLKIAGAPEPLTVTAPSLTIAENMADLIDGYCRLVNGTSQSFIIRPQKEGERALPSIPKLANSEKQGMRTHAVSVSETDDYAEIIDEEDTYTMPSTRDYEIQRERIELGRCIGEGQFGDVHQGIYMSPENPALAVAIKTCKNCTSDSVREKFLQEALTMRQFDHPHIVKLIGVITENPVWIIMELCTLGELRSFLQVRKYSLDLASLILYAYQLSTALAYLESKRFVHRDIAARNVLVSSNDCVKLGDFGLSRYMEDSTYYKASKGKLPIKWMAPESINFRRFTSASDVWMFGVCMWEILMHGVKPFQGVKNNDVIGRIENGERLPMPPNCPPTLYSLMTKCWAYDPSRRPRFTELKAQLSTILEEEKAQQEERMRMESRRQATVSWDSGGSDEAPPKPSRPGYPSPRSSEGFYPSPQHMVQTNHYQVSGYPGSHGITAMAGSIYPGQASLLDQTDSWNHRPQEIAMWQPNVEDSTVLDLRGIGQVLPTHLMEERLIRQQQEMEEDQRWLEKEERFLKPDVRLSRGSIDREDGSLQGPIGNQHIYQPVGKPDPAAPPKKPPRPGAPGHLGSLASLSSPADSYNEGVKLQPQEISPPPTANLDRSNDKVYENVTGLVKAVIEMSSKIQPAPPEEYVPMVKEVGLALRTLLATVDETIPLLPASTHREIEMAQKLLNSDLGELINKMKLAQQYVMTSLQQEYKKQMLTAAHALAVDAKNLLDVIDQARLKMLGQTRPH
# procedure.text: Inhibition of FAK (unknown origin) at 50 nM by Z'LYTE screening method relative to control
endpoint.name: inhibition (%)

- O=c1c2ccccc2[se]n1-c1nc(Nc2ccccc2)c2nc[nH]c2n1: 0
- O=c1c2ccccc2[se]n1-c1nc(N[C@H]2CC[Se]C2)c2nc[nH]c2n1: 0
- O=c1c2ccccc2[se]n1-c1nc(NC2CCCCC2)c2nc[nH]c2n1: 0

---

# tgt: Protein kinase C epsilon type (Homo sapiens) (UniProt Q02156)
# Sequence (Q02156 whole entry): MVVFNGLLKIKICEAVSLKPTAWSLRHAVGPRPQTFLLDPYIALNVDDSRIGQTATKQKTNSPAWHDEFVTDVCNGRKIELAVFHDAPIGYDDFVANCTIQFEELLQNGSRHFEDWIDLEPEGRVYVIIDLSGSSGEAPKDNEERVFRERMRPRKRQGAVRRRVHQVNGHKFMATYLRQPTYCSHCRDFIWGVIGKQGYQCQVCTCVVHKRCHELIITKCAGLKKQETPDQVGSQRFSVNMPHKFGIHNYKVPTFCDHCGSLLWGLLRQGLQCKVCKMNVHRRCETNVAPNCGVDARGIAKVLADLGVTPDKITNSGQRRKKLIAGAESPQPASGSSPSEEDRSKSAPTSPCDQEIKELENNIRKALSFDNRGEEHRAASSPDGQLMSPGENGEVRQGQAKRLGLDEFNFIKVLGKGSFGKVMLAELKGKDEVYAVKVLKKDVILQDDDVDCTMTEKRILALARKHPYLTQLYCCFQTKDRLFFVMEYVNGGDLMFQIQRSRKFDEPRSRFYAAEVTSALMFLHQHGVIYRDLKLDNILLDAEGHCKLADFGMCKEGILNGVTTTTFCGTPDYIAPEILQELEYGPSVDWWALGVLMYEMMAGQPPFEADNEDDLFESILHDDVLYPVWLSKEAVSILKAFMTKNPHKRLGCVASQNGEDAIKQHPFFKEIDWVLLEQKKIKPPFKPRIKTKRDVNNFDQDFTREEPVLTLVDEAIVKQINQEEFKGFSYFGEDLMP
# procedure.text: Inhibition of PKCepsilon (unknown origin) at 50 nM by Z'LYTE screening method relative to control
endpoint.name: inhibition (%)
Field: numeric (%). Do not append units.

Check out these entries, answers already filled in.
• O=C1c2ccccc2CN1c1nc(NC2CCCCC2)c2nc[nH]c2n1 = 4
• O=c1c2ccccc2[se]n1-c1nc(N[C@H]2CCOC2)c2nc[nH]c2n1 = 0

# input Find the measured inhibition of O=c1c2ccccc2[se]n1-c1nc(N[C@H]2CC[Se]C2)c2nc[nH]c2n1 and report it.
# output 5

---

# tgt: RAC-alpha serine/threonine-protein kinase (Homo sapiens) (UniProt P31749)
# Sequence (P31749 whole entry): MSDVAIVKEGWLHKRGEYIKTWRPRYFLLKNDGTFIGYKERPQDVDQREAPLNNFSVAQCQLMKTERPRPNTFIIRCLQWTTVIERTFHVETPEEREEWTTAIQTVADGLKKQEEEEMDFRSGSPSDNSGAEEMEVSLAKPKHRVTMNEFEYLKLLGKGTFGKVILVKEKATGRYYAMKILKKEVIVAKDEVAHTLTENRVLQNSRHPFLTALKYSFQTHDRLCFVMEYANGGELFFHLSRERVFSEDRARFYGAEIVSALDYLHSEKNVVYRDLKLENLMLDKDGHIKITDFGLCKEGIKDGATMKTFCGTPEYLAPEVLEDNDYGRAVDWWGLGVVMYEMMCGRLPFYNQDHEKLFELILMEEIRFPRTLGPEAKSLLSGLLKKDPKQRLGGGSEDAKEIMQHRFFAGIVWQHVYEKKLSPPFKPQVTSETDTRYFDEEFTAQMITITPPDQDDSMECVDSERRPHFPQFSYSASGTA
# procedure.text: Inhibition of AKT1 (unknown origin) at 50 nM by Z'LYTE screening method relative to control
endpoint.name: inhibition (%)

Check out these entries, answers already filled in.
* O=c1c2ccccc2[se]n1-c1nc(N[C@H]2CC[Se]C2)c2nc[nH]c2n1 | 0
* C[C@@H]1[C@H]2C[C@@H](C[C@H]1Nc1nc(-n3[se]c4ccccc4c3=O)nc3[nH]cnc13)C2(C)C | 0

(I) CCN(CC)CCCC(C)Nc1nc(-n2[se]c3ccccc3c2=O)nc2[nH]cnc12 (configuration not stated)
(II) O=C1c2ccccc2CN1c1nc(NC2CCCC2)c2nc[nH]c2n1
# input Among I and II , which shows a numerically higher inhibition result? Give the label of your selection.
# output I

---

# tgt: Protein kinase C eta type (Homo sapiens, UniProt P24723)
# Sequence (P24723 whole entry): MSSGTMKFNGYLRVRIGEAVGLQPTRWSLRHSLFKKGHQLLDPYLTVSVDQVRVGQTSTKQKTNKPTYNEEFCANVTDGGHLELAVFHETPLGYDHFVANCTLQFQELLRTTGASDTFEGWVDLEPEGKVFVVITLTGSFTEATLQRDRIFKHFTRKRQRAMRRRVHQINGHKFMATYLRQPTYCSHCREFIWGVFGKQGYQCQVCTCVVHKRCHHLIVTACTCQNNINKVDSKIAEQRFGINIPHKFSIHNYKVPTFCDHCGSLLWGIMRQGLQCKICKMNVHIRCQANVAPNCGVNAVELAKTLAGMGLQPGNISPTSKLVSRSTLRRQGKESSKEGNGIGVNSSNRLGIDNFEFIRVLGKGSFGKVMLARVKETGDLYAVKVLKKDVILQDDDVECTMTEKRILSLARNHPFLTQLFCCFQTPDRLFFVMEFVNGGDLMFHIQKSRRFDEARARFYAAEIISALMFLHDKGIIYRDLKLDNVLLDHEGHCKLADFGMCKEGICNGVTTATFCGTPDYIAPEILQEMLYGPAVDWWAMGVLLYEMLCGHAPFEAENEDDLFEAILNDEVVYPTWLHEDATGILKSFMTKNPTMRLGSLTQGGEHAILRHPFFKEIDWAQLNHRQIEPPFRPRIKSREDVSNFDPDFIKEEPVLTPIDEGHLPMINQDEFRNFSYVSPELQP
# procedure.text: Inhibition of PKCeta (unknown origin) at 50 nM by Z'LYTE screening method relative to control
endpoint.name: inhibition (%)

* O=c1c2ccccc2[se]n1-c1nc(N[C@H]2CCOC2)c2nc[nH]c2n1 | 3

(1) O=c1c2ccccc2[se]n1-c1nc(Nc2ccccc2)c2nc[nH]c2n1
(2) O=C1c2ccccc2CN1c1nc(NC2CCCC2)c2nc[nH]c2n1
# input In terms of reported inhibition, does 1 or 2 have the smaller number? Give the label of your selection.
# output 1
(1: 0%, 2: 4%)

---

# tgt: Serine/threonine-protein kinase mTOR (Homo sapiens)
# procedure.text: Inhibition of FRAP1 (unknown origin) at 50 nM by Z'LYTE screening method relative to control
endpoint.name: inhibition (%)

Check out these entries, answers already filled in.
- C[C@@H]1[C@H]2C[C@@H](C[C@H]1Nc1nc(-n3[se]c4ccccc4c3=O)nc3[nH]cnc13)C2(C)C: 1
- O=C1c2ccccc2CN1c1nc(NC2CCCC2)c2nc[nH]c2n1: 2
- O=c1c2ccccc2[se]n1-c1nc(N[C@H]2CC[Se]C2)c2nc[nH]c2n1: 0
- CCN(CC)CCCC(C)Nc1nc(N2Cc3ccccc3C2=O)nc2[nH]cnc12 (configuration not stated): 0

(I) O=C1c2ccccc2CN1c1nc(NC2CCCCC2)c2nc[nH]c2n1
(II) CCN(CC)CCCC(C)Nc1nc(-n2[se]c3ccccc3c2=O)nc2[nH]cnc12 (configuration not stated)
# input Among I and II , which shows a numerically higher inhibition result? Give the label of your selection.
# output II

---

# tgt: UniProtKB P07947
# Sequence (P07947 2-543 limits assumed): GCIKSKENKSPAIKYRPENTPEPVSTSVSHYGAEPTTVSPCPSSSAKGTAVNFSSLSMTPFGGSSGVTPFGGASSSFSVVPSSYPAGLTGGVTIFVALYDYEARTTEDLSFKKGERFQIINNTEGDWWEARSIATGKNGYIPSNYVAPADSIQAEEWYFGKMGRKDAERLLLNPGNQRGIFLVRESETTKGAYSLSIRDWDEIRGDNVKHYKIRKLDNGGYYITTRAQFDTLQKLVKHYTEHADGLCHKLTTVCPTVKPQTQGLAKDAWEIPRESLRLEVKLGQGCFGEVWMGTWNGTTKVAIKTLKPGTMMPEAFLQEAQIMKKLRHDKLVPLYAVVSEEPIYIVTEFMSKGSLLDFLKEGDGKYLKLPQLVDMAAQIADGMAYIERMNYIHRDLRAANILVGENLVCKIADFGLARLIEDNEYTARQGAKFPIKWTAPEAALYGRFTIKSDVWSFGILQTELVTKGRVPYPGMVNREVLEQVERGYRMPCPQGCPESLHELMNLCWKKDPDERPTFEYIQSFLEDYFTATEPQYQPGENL
# procedure.text: Inhibition of YES1 (unknown origin) at 50 nM by Z'LYTE screening method relative to control
endpoint.name: inhibition (%)

Check out these entries, answers already filled in.
- C[C@@H]1[C@H]2C[C@@H](C[C@H]1Nc1nc(-n3[se]c4ccccc4c3=O)nc3[nH]cnc13)C2(C)C: 7
- CCCNc1nc(-n2[se]c3ccccc3c2=O)nc2[nH]cnc12: 3
- O=c1c2ccccc2[se]n1-c1nc(N[C@@H]2C[C@H]3CC[C@@H]2C3)c2nc[nH]c2n1: 9
- O=C1c2ccccc2CN1c1nc(NC2CCCCC2)c2nc[nH]c2n1: 5

(a) O=C1c2ccccc2CN1c1nc(NC2CCCC2)c2nc[nH]c2n1
(b) CCN(CC)CCCC(C)Nc1nc(-n2[se]c3ccccc3c2=O)nc2[nH]cnc12 (configuration not stated)
(c) O=c1c2ccccc2[se]n1-c1nc(NC2CCCCC2)c2nc[nH]c2n1
# input // sort entries: inhibition, high to low Give the labels in the order specified.
# output c, b, a
(c: 38%, b: 15%, a: 1%)

---

# Species on record: Homo sapiens
# procedure.text: Inhibition of CDK1/Cyclin B (unknown origin) at 50 nM by Z'LYTE screening method relative to control
endpoint.name: inhibition (%)

* O=c1c2ccccc2[se]n1-c1nc(Nc2ccccc2)c2nc[nH]c2n1 | 0
* O=C1c2ccccc2CN1c1nc(NC2CCCCC2)c2nc[nH]c2n1 | 0
* O=C1c2ccccc2CN1c1nc(N[C@H]2CC[Se]C2)c2nc[nH]c2n1 | 0
* CCCNc1nc(-n2[se]c3ccccc3c2=O)nc2[nH]cnc12 | 1

(a) O=c1c2ccccc2[se]n1-c1nc(N[C@@H]2C[C@H]3CC[C@@H]2C3)c2nc[nH]c2n1
(b) CCN(CC)CCCC(C)Nc1nc(N2Cc3ccccc3C2=O)nc2[nH]cnc12 (configuration not stated)
# input In terms of reported inhibition, does a or b have the smaller number? Give the label of your selection.
# output a

(1) O=c1c2ccccc2[se]n1-c1nc(NC2CCCCC2)c2nc[nH]c2n1
(2) C[C@@H]1[C@H]2C[C@@H](C[C@H]1Nc1nc(-n3[se]c4ccccc4c3=O)nc3[nH]cnc13)C2(C)C
# input In terms of reported inhibition, does 1 or 2 have the smaller number? Give the label of your selection.
# output 1
(1: 0%, 2: 1%)

---

# tgt: Protein kinase C gamma type (Homo sapiens) (UniProt P05129)
# procedure.text: Inhibition of PKC gamma (unknown origin) at 50 nM by Z'LYTE screening method relative to control
endpoint.name: inhibition (%)

Check out these entries, answers already filled in.
- O=C1c2ccccc2CN1c1nc(N[C@H]2CC[Se]C2)c2nc[nH]c2n1: 3
- O=c1c2ccccc2[se]n1-c1nc(N[C@H]2CCOC2)c2nc[nH]c2n1: 25

(a) C[C@@H]1[C@H]2C[C@@H](C[C@H]1Nc1nc(-n3[se]c4ccccc4c3=O)nc3[nH]cnc13)C2(C)C
(b) O=c1c2ccccc2[se]n1-c1nc(Nc2ccccc2)c2nc[nH]c2n1
(c) CCN(CC)CCCC(C)Nc1nc(-n2[se]c3ccccc3c2=O)nc2[nH]cnc12 (stereo not given)
# input Arrange the 3 molecules by rising inhibition, starting with the smallest. Give the labels in the order specified.
# output b, a, c
(b: 0%, a: 1%, c: 6%)
